Observed IC50 values for Heat shock protein HSP90 (Homo sapiens, UniProt P07900+P08238) are listed in what follows.
Express it in µM; write the number only.

The examples below pair each entry with its known result.
CCNC(=O)c1[nH]nc(-c2cc(Cl)c(O)cc2O)c1-c1cccc(CNCCOC)c1; 0.728
CCNC(=O)c1noc(-c2cc(Cl)c(O)cc2O)c1-c1ccc(CN(C)C)cc1; 0.018

Look up and state reported IC50 for CCNC(=O)c1[nH]nc(-c2cc(Cl)c(O)cc2O)c1-c1cccc(CNCc2ccccc2C(F)(F)F)c1
0.231

Look up and state reported IC50 for CCNC(=O)c1[nH]nc(-c2cc(Cl)c(O)cc2O)c1-c1cccc(CNCCN2CCOCC2)c1
0.431

Look up and state reported IC50 for CCNC(=O)c1noc(-c2cc(CCc3cccc(F)c3)c(O)cc2O)c1-c1ccc(CN2CCOCC2)cc1
0.026

Look up and state reported IC50 for CCNC(=O)c1[nH]nc(-c2cc(Cl)c(O)cc2O)c1-c1ccc(CN2CCS(=O)(=O)CC2)cc1
0.027

Look up and state reported IC50 for CCNC(=O)c1noc(-c2cc(Cl)c(O)cc2O)c1-c1ccc(CN(CC)CC)cc1
0.064

Look up and state reported IC50 for CCNC(=O)c1[nH]nc(-c2cc(Cl)c(O)cc2O)c1-c1cccc(CNCCN2CCCCC2)c1
1

Look up and state reported IC50 for CCNC(=O)c1noc(-c2cc(CCc3ccc(F)cc3)c(O)cc2O)c1-c1ccc(CN2CCCCC2)cc1
0.026

---

Experiment: Tmax in human HCT116 cells bearing NCr athymic mouse at 4 mg/kg, cassette dosing
Assay type: ADME, organism-based, HCT-116
Parameters: dose 4 mg/kg
Conditions: in vivo
Below, each of the compounds is paired with its reported Tmax value.

The examples below pair each entry with its known result.
CCNC(=O)c1noc(-c2cc(C(C)(C)C)c(O)cc2O)c1-c1ccc(CN2CCOCC2)cc1; 1 h
CCNC(=O)c1noc(-c2cc(C(C)C)c(O)cc2O)c1-c1ccc(CN2CCOCC2)cc1; 1 h
CCNC(=O)c1noc(-c2cc(-c3ccccc3)c(O)cc2O)c1-c1ccc(CN2CCCCC2)cc1; 1 h
CCNC(=O)c1noc(-c2cc(-c3ccccc3)c(O)cc2O)c1-c1ccc(CN(CC)CC)cc1; 4 h

API: the following record is the query input.
Look up and state reported Tmax for CCNC(=O)c1noc(-c2cc(Cl)c(O)cc2O)c1-c1ccc(OC)cc1
1 h

---

Below, each of the compounds is paired with its reported Cmax value.
Experiment: Cmax in human HCT116 cells bearing NCr athymic mouse at 4 mg/kg, cassette dosing
Type: ADME, organism-based, HCT-116
Design: dose 4 mg/kg
Settings: in vivo
State the result as a value with its unit after it.

The examples below pair each entry with its known result.
CCNC(=O)c1noc(-c2cc(C(C)(C)C)c(O)cc2O)c1-c1ccc(CN2CCOCC2)cc1; 203 nM
CCNC(=O)c1noc(-c2cc(Cl)c(O)cc2O)c1-c1ccc(OC)cc1; 482 nM
CCNC(=O)c1noc(-c2cc(-c3ccccc3)c(O)cc2O)c1-c1ccc(CN(CC)CC)cc1; 252 nM
CCNC(=O)c1noc(-c2cc(-c3ccccc3)c(O)cc2O)c1-c1ccc(CN2CCCCC2)cc1; 237 nM

API: the following record is the query input.
Look up and state reported Cmax for CCNC(=O)c1noc(-c2cc(C(C)C)c(O)cc2O)c1-c1ccc(CN2CCOCC2)cc1
385 nM

---

Observed log10 of IC50 values for Heat shock protein HSP90 (Homo sapiens, UniProt P07900+P08238) are listed in what follows.
Heads up, the numbers here are log10 of IC50 in µM units.

The examples below pair each entry with its known result.
CCNC(=O)c1noc(-c2cc(CC)c(O)cc2O)c1-c1ccc(CN2CCOCC2)cc1; -1.54
CCNC(=O)c1[nH]nc(-c2cc(Cl)c(O)cc2O)c1-c1cccc(CN(C)CCO)c1; -0.04
CCNC(=O)c1noc(-c2cc(CC)c(OC)cc2O)c1-c1ccc(CN2CCOCC2)cc1; -1.82
CCNC(=O)c1[nH]nc(-c2cc(Cl)c(O)cc2O)c1-c1cccc(CN2CCC(CO)CC2)c1; 0.42

API: the following record is the query input.
Provide measured log10 of IC50 on Heat shock protein HSP90 (Homo sapiens, UniProt P07900+P08238) for CCNC(=O)c1[nH]nc(-c2cc(Cl)c(O)cc2O)c1-c1cccc(CN2CCC[C@H]2CO)c1 please.
0.22

---

Target: Heat shock protein HSP90 (Homo sapiens, UniProt P07900+P08238)
Class assignment keyed on IC50, ranges 0 (below 0.02 µM), 1 (0.02 µM to below 0.3 µM), 2 (0.3 µM or more)

As a guide, the following entries are already answered.
CCNC(=O)c1noc(-c2cc(C(C)(C)C)c(O)cc2O)c1-c1ccc(CN2CCCCC2)cc1; 0
CCNC(=O)c1[nH]nc(-c2cc(Cl)c(O)cc2O)c1-c1ccc(CN(CCO)CCO)cc1; 1
CCNC(=O)c1noc(-c2cc(Cl)c(O)cc2O)c1-c1ccc(CNCCS(C)(=O)=O)cc1; 0

Class? Entry: CCNC(=O)c1noc(-c2cc(CC)c(O)cc2OC)c1-c1ccc(CN2CCOCC2)cc1
2

Class? Entry: CCNC(=O)c1[nH]nc(-c2cc(Cl)c(O)cc2O)c1-c1ccc(CN(CC)CC)cc1
1

Class? Entry: CCNC(=O)c1noc(-c2cc(-c3ccccc3)c(O)cc2O)c1-c1ccc(CN(CC)CC)cc1
1

Class? Entry: CCNC(=O)c1noc(-c2cc(Cl)c(O)cc2O)c1-c1cccc(N2CCN(C)CC2)c1
2

Class? Entry: CCNC(=O)c1noc(-c2cc(CC)c(OC)cc2OC)c1-c1ccc(CN2CCOCC2)cc1
2

Class? Entry: CCNC(=O)c1noc(-c2cc(-c3ccccc3)c(O)cc2O)c1-c1ccc(CN2CCOCC2)cc1
1

---

Assay: Apparent terminal-phase volume of distribution (Vz/F) in human HCT116 cells bearing NCr athymic mouse at 4 mg/kg, cassette dosing
Settings: in vivo
Below, each of the molecules is paired with its reported Vz/F value.
State the result as a value with its unit after it.

The examples below pair each entry with its known result.
CCNC(=O)c1noc(-c2cc(Cl)c(O)cc2O)c1-c1ccc(OC)cc1; 0.432 L
CCNC(=O)c1noc(-c2cc(C(C)C)c(O)cc2O)c1-c1ccc(CN2CCOCC2)cc1; 0.478 L
CCNC(=O)c1noc(-c2cc(-c3ccccc3)c(O)cc2O)c1-c1ccc(CN2CCCCC2)cc1; 0.652 L
CCNC(=O)c1noc(-c2cc(-c3ccccc3)c(O)cc2O)c1-c1ccc(CN(CC)CC)cc1; 0.736 L

API: the following record is the query input.
Look up and state reported Vz/F for CCNC(=O)c1noc(-c2cc(C(C)(C)C)c(O)cc2O)c1-c1ccc(CN2CCOCC2)cc1
0.809 L

---

Assay: Apparent clearance in human HCT116 cells bearing NCr athymic mouse at 4 mg/kg, cassette dosing
Format: ADME, organism-based, HCT-116
Design: dose 4 mg/kg
Details: in vivo
Below, each of the molecules is paired with its reported CL/F value.
Express it in mL/min; write the number only.

The examples below pair each entry with its known result.
CCNC(=O)c1noc(-c2cc(C(C)(C)C)c(O)cc2O)c1-c1ccc(CN2CCOCC2)cc1; 1.85
CCNC(=O)c1noc(-c2cc(-c3ccccc3)c(O)cc2O)c1-c1ccc(CN(CC)CC)cc1; 0.583
CCNC(=O)c1noc(-c2cc(-c3ccccc3)c(O)cc2O)c1-c1ccc(CN2CCCCC2)cc1; 1.03
CCNC(=O)c1noc(-c2cc(Cl)c(O)cc2O)c1-c1ccc(OC)cc1; 1.27

API: the following record is the query input.
Look up and state reported CL/F for CCNC(=O)c1noc(-c2cc(C(C)C)c(O)cc2O)c1-c1ccc(CN2CCOCC2)cc1
0.583

---

Below, each of the compounds is paired with its reported AUC(0-t) value.
Test: AUClast in human HCT116 cells bearing NCr athymic mouse at 4 mg/kg, cassette dosing
Assay type: ADME, organism-based, HCT-116
Parameters: time 0 - last, dose 4 mg/kg
Details: in vivo

The examples below pair each entry with its known result.
CCNC(=O)c1noc(-c2cc(C(C)C)c(O)cc2O)c1-c1ccc(CN2CCOCC2)cc1; 1.72 µM·h
CCNC(=O)c1noc(-c2cc(-c3ccccc3)c(O)cc2O)c1-c1ccc(CN(CC)CC)cc1; 1.25 µM·h
CCNC(=O)c1noc(-c2cc(C(C)(C)C)c(O)cc2O)c1-c1ccc(CN2CCOCC2)cc1; 0.751 µM·h
CCNC(=O)c1noc(-c2cc(-c3ccccc3)c(O)cc2O)c1-c1ccc(CN2CCCCC2)cc1; 0.995 µM·h

API: the following record is the query input.
Look up and state reported AUC(0-t) for CCNC(=O)c1noc(-c2cc(Cl)c(O)cc2O)c1-c1ccc(OC)cc1
1.73 µM·h

Ref: ChEMBL document CHEMBL1140693
